# SYSTEM_TESTED: Somatostatin receptor type 2 (Homo sapiens)
# Sequence (P30874 whole entry): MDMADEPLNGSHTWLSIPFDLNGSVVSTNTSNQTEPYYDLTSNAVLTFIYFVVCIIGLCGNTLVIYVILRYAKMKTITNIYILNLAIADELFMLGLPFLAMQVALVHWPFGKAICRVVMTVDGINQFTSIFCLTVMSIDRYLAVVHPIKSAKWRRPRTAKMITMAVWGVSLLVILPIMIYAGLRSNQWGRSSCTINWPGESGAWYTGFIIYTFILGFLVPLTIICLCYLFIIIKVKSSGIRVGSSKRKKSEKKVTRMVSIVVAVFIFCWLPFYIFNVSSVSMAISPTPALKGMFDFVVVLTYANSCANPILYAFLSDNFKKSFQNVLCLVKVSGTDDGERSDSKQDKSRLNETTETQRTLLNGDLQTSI
# EXPERIMENT_NOTES: Agonist activity at T7-epitope-tagged human SST2A receptor expressed in HEK293 cells assessed as stimulation of receptor internalization at 1 uM after 30 mins by immunofluorescence microscopic analysis
# Format: cell-based
Activity calls are given as the source filed them. The rule behind the calls is not given here.
In this exercise, the only acceptable responses are YES = active, NO = inactive

Worked cases, answers included:
CCCC[C@H](NC(=O)CNC(=O)[C@H](C)NC(=O)CN1CCN(CC(=O)O)CCN(CC(=O)O)CCN(CC(=O)O)CC1)C(=O)N[C@@H](CCCCN)C(=O)N[C@@H](CC(N)=O)C(=O)N[C@H]1CSSC[C@@H](C(=O)N[C@H](C(=O)N[C@@H](CO)C(=O)NCC(=O)O)[C@@H](C)O)NC(=O)[C@H]([C@@H](C)O)NC(=O)[C@H](CCCCN)NC(=O)[C@@H](Cc2c[nH]c3ccccc23)NC(=O)[C@H](Cc2ccccc2)NC1=O: NO
C[C@@H](O)[C@@H]1NC(=O)[C@H](CCCCN)NC(=O)[C@@H](Cc2c[nH]c3ccccc23)NC(=O)[C@H](Cc2ccccc2)NC(=O)[C@H](Cc2ccccc2)NC(=O)[C@@H](NC(=O)[C@H](CCCNC(=N)N)NC(=O)COCCOCCNC(=O)CN2CCN(CC(=O)O)CCN(CC(=O)O)CCN(CC(=O)O)CC2)CSSC[C@@H](C(=O)O)NC(=O)[C@H](CO)NC(=O)[C@H](Cc2ccccc2)NC1=O: YES

Outcome? CCCC[C@H](NC(=O)CNC(=O)[C@H](C)NC(=O)CN1CCN(CC(=O)O)CCN(CC(=O)O)CCN(CC(=O)O)CC1)C(=O)N[C@@H](CCCCN)C(=O)N[C@@H](CC(N)=O)C(=O)N[C@H]1CSSC[C@@H](C(=O)N[C@H](C(=O)N[C@@H](CO)C(=O)NCC(=O)O)[C@@H](C)O)NC(=O)[C@H]([C@@H](C)O)NC(=O)[C@H](CCCCN)NC(=O)[C@@H](Cc2c[nH]c3ccccc23)NC(=O)[C@H](Cc2ccc(O)cc2)NC1=O
NO
